Assay: Plasma stability in human plasma assessed as compound remaining measured after 120 mins
Format: ADME, cell-free
Conditions: read-out: Stability
Threshold-based label: remaining at 2 h under 90% gives Criterion met, remaining at 2 h not under 90% gives Criterion not met.

// known answers, use as guide
                                smiles_data     classification
0  COc1ccc(N2C(=O)/C(=C/c3ccccc3C(F)(F)F)SC2=S)cc1      Criterion met
1  COc1ccc(N2C(=O)C(C)(C)N(Cc3ccc(Br)c(C)c3)C2=S)cc1  Criterion not met
2  CC1(C)C(=O)N(c2ccc(Oc3ccccc3)cc2)C(=S)N1Cc1ccc(S(N)(=O)=O)c(F)c1  Criterion not met
3  COc1ccc(N2C(=O)C(C)(C)N(Cc3ccc(C)c(C)c3)C2=S)cc1  Criterion not met

--- query ---
## Input Below 90% on remaining at 2 h? Entry Cc1ccc(CN2C(=S)N(c3ccc(C(C)(C)C)cc3)C(=O)C2(C)C)cc1C
## Output Criterion not met
